Structures can show the parent of a compound that is named as a salt.
QUANTITY_NAME: melting point (°C)

CCCNCC1COc2ccc(S(C)(=O)=O)cc2O1 (stereo not shown) (as salt: hydrochloric acid salt)    223
CNCC1COc2ccc(S(C)(=O)=O)cc2O1 (stereo not shown) (as salt: hydrochloric acid salt)    273

a: CNC[C@H]1COc2ccc(S(C)(=O)=O)cc2O1 (as salt: hydrochloric acid salt)
b: CC1CCCN(C[C@@H]2COc3ccc(S(C)(=O)=O)cc3O2)C1 (stereo partly shown) (as salt: fumaric acid salt)
Query: Looking at recorded values for melting point, does a or b come in lower? In your reply, give the label of the chosen option.
Reply: b
